All values here come from the supplement of paper PMC10724198.

Test system: Saccharomyces cerevisiae
Assay: protein stability index of tFT-peptide fusion (C-terminal peptide) (PSI (0-1 scale)); higher = more stable (slower turnover);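 also: PSI is a weighted mean of sequencing reads over stability bins, variants kept only with over 10 reads, mCherry proximal and sfGFP distal, peptide attached via GGGS linker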
Conditions: genetic background: das1 deletion; temperature: 37 C
Parameter class (string): assigned from measured protein stability index. Ranges: LOW (below 0.5), MEDIUM (0.5 to below 0.6), HIGH (0.6 or more)

{"columns": ["input_sequence", "label_class"],
 "data": [
  ["LSLFPFLPSPCP", "HIGH"],
  ["TGVPNPSVAVMC", "HIGH"],
  ["AFKRVFWALWWM", "MEDIUM"],
  ["RFCRVERAILLR", "LOW"],
  ["RGVRALFLLLSF", "MEDIUM"],
  ["RSFGGRPWVLFL", "HIGH"],
  ["FFLSFICVMLCG", "LOW"],
  ["VYVVLGTVYVTY", "LOW"],
  ["MLTYVVRSLVGY", "MEDIUM"],
  ["ESRRGILFIYIN", "HIGH"],
  ["RVLVEIVYFKVF", "LOW"],
  ["WRVRFRLLAGFC", "LOW"],
  ["TLDWKFGWGGIG", "HIGH"],
  ["SWTAYSYQWVFF", "MEDIUM"],
  ["PVHARYCSLKWA", "HIGH"],
  ["PPIPTPSPIPLH", "HIGH"],
  ["RICACHGIRFIP", "HIGH"],
  ["VGCHISAFSDLI", "HIGH"],
  ["SLRYRFLSFFFL", "HIGH"],
  ["YFICLSLVLFSY", "LOW"],
  ["IKIQPKKRISLI", "HIGH"]
]}

---

Test system: Saccharomyces cerevisiae
Test: protein stability index of tFT-peptide fusion (C-terminal peptide) (PSI (0-1 scale)); higher = more stable (slower turnover)
Settings: genetic background: wild type; temperature: 30 C
The threshold is inclusive: protein stability index of exactly 0.7 counts as yes; values below receive no.

{"columns": ["input_sequence", "label_class"],
 "data": [
  ["SSPPRSLLSKSF", "yes"],
  ["HPLPPPPRSPPS", "yes"],
  ["LSGPPVSVQRSF", "no"],
  ["SCPPSFIPVLSP", "no"],
  ["PPPALEPSPKEL", "yes"],
  ["SSRGVTRRRLRE", "yes"],
  ["GSFGQLIIRYSS", "no"],
  ["ISSRSMGGCWHA", "no"],
  ["QTRYAPCQRAPT", "no"],
  ["IVRDTECGIFYR", "yes"],
  ["GVLLGSKFCQQL", "no"],
  ["NGVRGRGGQWVQ", "yes"],
  ["PAFPSPFPTSSL", "no"],
  ["KKNKKKNRTKIE", "no"],
  ["LTSPPRPAFVRV", "no"],
  ["GQGEGRGKIKKG", "yes"],
  ["TFLGEAGSVGVT", "no"],
  ["GKRGRDYIKVRE", "no"],
  ["CFLERLAFPGLY", "no"],
  ["AIRSSRMPLGSA", "no"],
  ["LESCFFGSFFFL", "yes"],
  ["SDMTHRSCTLLC", "no"],
  ["LLCLKIGASWSK", "no"],
  ["LALWNGVSMEEE", "no"],
  ["LLYPRYFSTGIT", "no"],
  ["GDRGIKAYGVRG", "no"],
  ["SLVLPSFSLFSR", "yes"],
  ["SLIPLRLTLTRH", "yes"],
  ["LLSGLVFVFVLG", "no"],
  ["CRVSIVPIKRYS", "no"],
  ["LTFILGPPRMWL", "no"],
  ["DFRGVSVIRHQV", "no"],
  ["SFFLALSIRLPN", "no"],
  ["GRKLLAGPDGDI", "no"],
  ["QILPVLSKPTWI", "yes"],
  ["TQSAPGIPGAGE", "no"],
  ["VRSDHSGLEILG", "yes"],
  ["CFVERRCFLLYR", "no"],
  ["LRVVISWGLDLY", "no"],
  ["GPVRSPPSPTPR", "yes"],
  ["YPIFSPFSLPAL", "no"],
  ["NTEKNKRDRYQK", "yes"],
  ["WGVCGVFLCLGV", "no"],
  ["IQRIPSGSGRVR", "yes"],
  ["VTVLFFLGPSLL", "no"],
  ["SVIAYTKPLWFR", "no"],
  ["WVNRFVFFSPST", "no"],
  ["CLLWVVWSLLWV", "no"],
  ["RFVRGEFLWGVC", "no"],
  ["RPKVSRIKENKY", "yes"],
  ["EKKKKENKVKRF", "no"],
  ["RRHPRLPSLSGL", "no"]
]}
